test system: MS2 coat protein; assay: apparent KD of MS2 coat protein; designed switch direction (-1 OFF switch, 1 ON switch): -1; higher = weaker reporter binding; conditions: input ligand: microRNA oligo, concentration not stated
VALUE TYPE: apparent KD of MS2 coat protein (nM)
Give the quantity in nM, number only.

GAACUAAGGCAAAGCUUUAGUCGUACAUGAGGAUCACCCAUGUAGGAUAUGGUAGGCAAAGCAUACCAGAAGGACAGAGUGAUC [Mat - Exclusion NG 3 - Mod of JL - D62] (Eterna round: R96, puzzle: Exclusion NG 3)    363
CUAGCAAUUGUAGGAUAUCGAUGUGUUUCACAUCGAGAAGGACAUGAGGAUCACCCAUGUGAAAGGAUCGUGAGAUCCAGCUAG [JL ENG1 3.75] (Eterna round: R96, puzzle: Exclusion NG 1)    23.1
GCAGCAUAGUCCAAAUAGGACAUACAUGAGGAUCACCCAUGUCAGGAUAUGGUCUGGAUUACAGGCCAGAAGGGACGAAGCUGC [Eli exng3 - 005] (Eterna round: R96, puzzle: Exclusion NG 3)    16.4
AAACGGCAGGGAGGAUAUGCUUACCUGGGUCGUCUUCAGACAUGAGGAUCACCCAUGUAGUCGACGCAGAAGGCCCUCAAAGCC [JL ViennaUCT Ontiis mod 3] (Eterna round: R96, puzzle: Exclusion NG 2)    38.7
ACAUGUCAUCUAGGAUAUUGGACACAUGAGGAUCACCCAUGUACCCGGAGGCUUUACUAUGAGUUCGAGAAGGAGAUGUACAUG [Ex NG2 #72] (Eterna round: R96, puzzle: Exclusion NG 2)    38.6

Query string: Could you share what apparent KD of MS2 coat protein was measured for CACCCACAUGAGGAUCACCCAUGUGAGGAUAUGAUACUAUGUACUUCGGUACAUAGUAUCAGAAGGCACAGGUG [Ex1-3: 61] (Eterna round: R96, puzzle: Exclusion 1) , tested on MS2 coat protein?
Result string: 25.7

Query string: Could you share what apparent KD of MS2 coat protein was measured for AGCUGUGGCCGAGGAUAUCUACUAAUCCAAACCGAAAUAUAAUCGGACAUGAGGAUCACCCAUGUAGAGAAGGCGGUCUCAGCA [Eli eng2 - 076] (Eterna round: R96, puzzle: Exclusion NG 2) , tested on MS2 coat protein?
Result string: 199

Query string: Could you share what apparent KD of MS2 coat protein was measured for AGAGUGCUGCGAGGAUAUACAUGAGGAUCACCCAUGUUUUCCUGUGAGGCAUAGCCUCACAGGAUGUAGAAGGCGCAGUACUCA [Mat - Exclusion NG 2 - Mod of JL - D29] (Eterna round: R96, puzzle: Exclusion NG 2) , tested on MS2 coat protein?
Result string: 9.44

Query string: Could you share what apparent KD of MS2 coat protein was measured for AGAGUGCUGCGAGGAUAUACAUGAGGAUCACCCAUGUAAAAGUGUGAGGCAAAGCCUCACACUAUGUAGAAGGCGCAGUACUCA [Mat - Exclusion NG 2 - Mod of JL - D11] (Eterna round: R96, puzzle: Exclusion NG 2) , tested on MS2 coat protein?
Result string: 12.6

Query string: Could you share what apparent KD of MS2 coat protein was measured for CUAAAUCAUGUAGGAUAUGCGUGGCGAAGCUAUGCAGAAGGACAUGAGGAUCACCCAUGUCUUUCCGUCUGAGUACAGACGGGA [Mat - Exclusion NG 1 - Mod of JL - D45] (Eterna round: R96, puzzle: Exclusion NG 1) , tested on MS2 coat protein?
Result string: 16.4

Values from the supplement of paper PMC9170038
